Target: native soluble IL-6R in human plasma (human, UniProt P08887)
Assay: ELISA 3, periplasmic extract; competitor BN-12; human plasma
Each entry below carries its reported OD450 ratio sample/blank.
Please state the value as a number alone, without comment.

As a guide, the following entries are already answered.
binder | assay-readout | recorded-measurement
IL6RPMP108F7 (VHH) VHH: EVQLVESGGGLVQAGGSLRLSCTASGRTFSDYDMGWFRQAPGKERECVAVIDTNGDNTLTVGSVKGRFAISRDNAKNTVYLQMNSLLPEDTAVYTCAAGAWSSLRSTAANYWGQGTQVTVSS | OD450 ratio sample/blank | 1.02
IL6RPMP101C2 (VHH) VHH: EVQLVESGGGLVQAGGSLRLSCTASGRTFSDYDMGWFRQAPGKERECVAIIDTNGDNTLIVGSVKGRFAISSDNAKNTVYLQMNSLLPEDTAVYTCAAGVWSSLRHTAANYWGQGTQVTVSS | OD450 ratio sample/blank | 0.952
IL6RPMP120C10 (VHH) VHH: EVQLVESGGGLVQAGGSLSLSCATSGRTISDDTMAWFRQAPGKEREFVAIITFNGARTHYSDSVRDRFTISRDNAKNTVYLQMNSLKSEDTAVYYCAASTKYYSSTYNYIHPAFYDIWGQGTQVTVSS | OD450 ratio sample/blank | 1.01

Proceed to the following item.
Note down OD450 ratio sample/blank recorded for IL6RPMP120C11 (VHH) VHH: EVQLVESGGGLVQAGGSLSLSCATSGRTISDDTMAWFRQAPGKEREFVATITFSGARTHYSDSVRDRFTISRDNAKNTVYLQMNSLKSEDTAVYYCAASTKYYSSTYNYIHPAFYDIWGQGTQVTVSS 0.988
